# Experimental system: Rap guanine nucleotide exchange factor 3 (Homo sapiens) (UniProt O95398)
# Sequence (O95398 whole entry, looked up): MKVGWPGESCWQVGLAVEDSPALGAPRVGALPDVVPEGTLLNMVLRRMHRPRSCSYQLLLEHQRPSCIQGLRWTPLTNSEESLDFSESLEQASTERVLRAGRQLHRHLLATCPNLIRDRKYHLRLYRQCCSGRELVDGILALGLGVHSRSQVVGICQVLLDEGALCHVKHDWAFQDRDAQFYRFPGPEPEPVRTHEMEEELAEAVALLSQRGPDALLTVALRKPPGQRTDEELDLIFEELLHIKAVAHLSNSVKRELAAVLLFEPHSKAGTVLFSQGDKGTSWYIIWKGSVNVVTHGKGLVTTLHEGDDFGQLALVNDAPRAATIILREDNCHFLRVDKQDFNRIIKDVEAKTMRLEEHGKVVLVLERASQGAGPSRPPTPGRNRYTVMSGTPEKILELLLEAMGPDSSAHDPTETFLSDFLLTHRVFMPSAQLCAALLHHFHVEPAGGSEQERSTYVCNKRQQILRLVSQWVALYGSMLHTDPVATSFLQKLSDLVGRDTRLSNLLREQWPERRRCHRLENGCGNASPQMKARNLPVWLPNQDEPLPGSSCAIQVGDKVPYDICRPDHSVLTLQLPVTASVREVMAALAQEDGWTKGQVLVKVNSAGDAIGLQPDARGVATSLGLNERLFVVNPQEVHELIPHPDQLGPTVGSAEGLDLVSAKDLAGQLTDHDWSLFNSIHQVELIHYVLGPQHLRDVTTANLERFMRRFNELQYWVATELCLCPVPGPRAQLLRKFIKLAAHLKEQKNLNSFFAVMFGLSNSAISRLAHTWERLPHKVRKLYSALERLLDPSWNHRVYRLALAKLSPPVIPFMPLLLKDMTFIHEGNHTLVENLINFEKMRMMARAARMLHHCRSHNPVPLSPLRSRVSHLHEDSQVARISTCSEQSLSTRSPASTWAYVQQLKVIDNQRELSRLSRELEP
# Test name: Counterscreen qHTS for antagonist of cAMP-regulated guanine nucleotide exchange factor 3 (EPAC1) (AID 1645888);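 further: fluorescence loss as bound BODIPY-GDP is released from Rap1B; % of control where 0% means no effect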
# Condition: Rap1B-BODIPY-GDP nucleotide exchange, fluorescence; series mostly up to 154 µM
Results filed as inconclusive are left out. Active and inactive are the calls of the source. The call rests on the fitted dose curve; in most records, active means well fitted inhibition curve with a large enough effect; inconclusive means small, poorly fitted or top-dose-only effect; inactive means no such curve, though single readings can be large or run the other way.
Property name: activity change, negative = inhibition

{"columns": ["Compound", "Experimental system", "activity change, negative = inhibition"],
 "data": [
  ["CCOc1ccc(C=NNc2ccc(S(=O)(=O)Nc3ccccc3C(=O)O)cc2[N+](=O)[O-])cc1", "Rap guanine nucleotide exchange factor 3 (Homo sapiens) (UniProt O95398)", "6.79% [at 30.8 µM] (inactive)"],
  ["CC1(C)Cc2c(C#N)c(N3CCN(C(=O)c4ccco4)CC3)nc(-c3ccco3)c2CS1", "Rap guanine nucleotide exchange factor 3 (Homo sapiens) (UniProt O95398)", "inactive"],
  ["COc1ccc(OC)c(NC(=O)CSc2ncnc3sc(C)cc23)c1", "Rap guanine nucleotide exchange factor 3 (Homo sapiens) (UniProt O95398)", "inactive"],
  ["CCOC(=O)C1=C(CC)OC(N)=C(C#N)C1c1ccc(OC)c(OC)c1OC (configuration not stated)", "Rap guanine nucleotide exchange factor 3 (Homo sapiens) (UniProt O95398)", "-16.4% [at 30.8 µM] (inactive)"],
  ["O=C(N/N=C/c1cccnc1)c1cc(-c2ccccc2OCc2ccccc2)n[nH]1", "Rap guanine nucleotide exchange factor 3 (Homo sapiens) (UniProt O95398)", "inactive"],
  ["O=C(Cn1c(=O)n(-c2ccccc2)c(=O)c2c3c(sc21)CCC3)c1ccc(Br)cc1", "Rap guanine nucleotide exchange factor 3 (Homo sapiens) (UniProt O95398)", "inactive"],
  ["O=C(OCCN1C(=O)c2cccc3c(N4CCOCC4)ccc(c23)C1=O)c1ccc(Cl)cc1Cl", "Rap guanine nucleotide exchange factor 3 (Homo sapiens) (UniProt O95398)", "68.2% [at 30.8 µM] (inactive)"],
  ["CCCN(CCC)Cc1cc(=O)oc2cc(OC)ccc12", "Rap guanine nucleotide exchange factor 3 (Homo sapiens) (UniProt O95398)", "inactive"],
  ["Cc1ccc(C)c(OC(C)C(=O)Nc2ccc(S(=O)(=O)Nc3nccs3)cc2)c1 (configuration not stated)", "Rap guanine nucleotide exchange factor 3 (Homo sapiens) (UniProt O95398)", "inactive"],
  ["CCCN(CCC)C(=O)Cn1c(=O)c2sccc2n2c(=S)sc(-c3ccccc3)c12", "Rap guanine nucleotide exchange factor 3 (Homo sapiens) (UniProt O95398)", "-19.9% [at 30.8 µM] (inactive)"]
]}

Input line: Request the reported activity change, negative = inhibition associated with "O=C(Nc1c2c(nc3ccccc13)CCCC2)c1ccccc1F"
Output line: -18.6% [at 30.8 µM] (inactive)

Input line: activity change, negative = inhibition for "O=C1C(O)=CC(=C(c2ccccc2)c2ccccc2)c2ccccc21" ?
Output line: inactive

Input line: Find the recorded activity change, negative = inhibition belonging to "O=[N+]([O-])c1cccc(S(=O)(=O)Nc2cccc(-c3ccc(N4CCCC4)nn3)c2)c1" and report it.
Output line: inactive

###

# Experimental system: Cytochrome P450 2C9 (Homo sapiens)
# Test name: qHTS Assay for Inhibitors and Substrates of Cytochrome P450 2C9 (AID 883); further: nearly all actives have a fitted effect of over 60% in size
# Condition: recombinant CYP2C9, luciferin-H luminescence, 60 min; series mostly up to 57.1 µM
Inconclusive results are not listed. Active and inactive are the calls of the source. Calls follow the shape of the dose curve; as a rule, active = well fitted inhibition curve with a large enough effect; inconclusive = small, poorly fitted or top-dose-only effect; inactive = no such curve, though single readings can be large or run the other way.
Choose the fitting class; nothing outside 1 = active, -1 = inactive is accepted.

The following compounds have reported results that may help.
{"columns": ["Entry smiles", "Class name"],
 "data": [
  ["COCCn1c(=O)c(-c2ccccc2)nc2cnc(Oc3cccc(Cl)c3)nc21", 1],
  ["N#CCCn1c(=O)c(-c2ccc(Cl)cc2)nc2cnc(N3CCOCC3)nc21", -1],
  ["COc1ccc2[nH]cc(CCNc3ncncc3-c3ccccc3Cl)c2c1", 1],
  ["O=c1cc(-c2cccc(O)c2)oc2c(O)c(O)ccc12", 1]
]}

Below: the item to evaluate.
Input line: Please state the recorded outcome for this compound: "COc1cc2cc3c4c(cc(OC)c(OC)c4c2cc1OC)CCN3C"
Output line: 1
